Where do the numbers come from? From patent US20260007741A1.

The following compounds are shown together with reported % of main lipid peak to To values.
condition_info: 1% H2O2/100 μM Fe(III)Cl, 37° C., 72 h
parameter: % of main lipid peak to To (%)

>>> df
                                   compound  endpoint_unit  result_value
0  CCCCCCCC/C=C\CCCCCCCCC1(CCCCCCCC/C=C\CCCCCCCC)OC[C@H](CCCN(C)C)O1              %          79.0
1  CCCCCCCC/C=C\CCCCCCCC1(CCCCCCC/C=C\CCCCCCCC)OC[C@H](CCCN(C)C)O1              %          45.9
2  CCCCC/C=C\C/C=C\CCCCCCCCC1(CCCCCCCC/C=C\C/C=C\CCCCC)OCC(CCCN(C)C)O1 (centres unmarked) [KC3, reference compound]              %             0
3  CCCCCC/C=C\CCCCCCCCC1(CCCCCCCC/C=C\CCCCCC)OC[C@H](CCCN(C)C)O1              %          60.2
4  CCCCCCCCCCCCCCCCCC1(CCCCCCCCCCCCCCCCC)OC[C@H](CCCN(C)C)O1              %          90.2

* * *

condition_info: 1% H2O2/100 μM Fe(III)Cl, 37° C., 24 h
parameter: % of main lipid peak to To (%)

>>> print(df.to_string())
                                   compound                   parameter  result_value
0  CCCCCCCC/C=C\CCCCCCCCC1(CCCCCCCC/C=C\CCCCCCCC)OC[C@H](CCCN(C)C)O1 [KC3-OA]  % of main lipid peak to To          88.9
1  CCCCCC/C=C\CCCCCCCCC1(CCCCCCCC/C=C\CCCCCC)OC[C@H](CCCN(C)C)O1 [KC3-PA]  % of main lipid peak to To          62.7
2  CCCCCCCCCCCCCCCCCC1(CCCCCCCCCCCCCCCCC)OC[C@H](CCCN(C)C)O1 [KC3-17]  % of main lipid peak to To          92.9
3  CCCCC/C=C\C/C=C\CCCCCCCCC1(CCCCCCCC/C=C\C/C=C\CCCCC)OCC(CCCN(C)C)O1 (centres unmarked) [KC3, reference compound]  % of main lipid peak to To          11.2
4  CCCCCCCC/C=C\CCCCCCCC1(CCCCCCC/C=C\CCCCCCCC)OC[C@H](CCCN(C)C)O1 [KC3-17 (C8:1)]  % of main lipid peak to To          66.1

* * *

condition_info: 1% H2O2/100 μM Fe(III)Cl, 37° C., 48 h
Output t for records whose % of main lipid peak to To is lower than 60%, f for records at or above 60%.

In [3]: df
Out[3]:
                                   compound  group
0  CCCCCCCC/C=C\CCCCCCCCC1(CCCCCCCC/C=C\CCCCCCCC)OC[C@H](CCCN(C)C)O1      f
1  CCCCCCCCCCCCCCCCCC1(CCCCCCCCCCCCCCCCC)OC[C@H](CCCN(C)C)O1      f
2  CCCCC/C=C\C/C=C\CCCCCCCCC1(CCCCCCCC/C=C\C/C=C\CCCCC)OCC(CCCN(C)C)O1 (centres unmarked) [KC3, reference compound]      t
